Assay: NCI Yeast Anticancer Drug Screen. Data for the cln2 rad14 strain (AID 165);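 also: 0% = growth equal to vehicle treated cultures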
Details: S. cerevisiae cln2 rad14 strain, at 50.0 µM
The panel holds about 79,000 compounds, 15% with a hit somewhere; the sample as a whole holds those more often. Active and inactive are the calls of the source. Rule as the data show it: active = growth inhibition above about 70%; inactive = the rest.
Answer with one of the outcomes 1 (yes) = active, 0 (no) = inactive

Example entries begin here.
[[record]]
compound = "CCOC(=O)/C(C#N)=C/c1ccc([N+](=O)[O-])cc1"
answer_label = "0 (no)"

[[record]]
compound = "O=S1(=O)CCNc2ccccc2O1"
answer_label = "0 (no)"

[[record]]
compound = "CC(Br)C1=CC(c2ccccc2)(c2ccccc2)c2ccccc21 (stereo unspecified)"
answer_label = "1 (yes)"

[[record]]
compound = "N=C(N)Cn1cnc2ccccc21"
answer_label = "0 (no)"


Q: Assay result, entry COc1ccc2c(=O)c(-c3ccc(OC)c(OC)c3)c(C)oc2c1 — outcome?
A: 0 (no)

Q: For CCOC(=O)c1[nH]n(-c2ccccc2)c(=O)c1/C=N/C(=S)Nc1c(CC)cccc1CC , what call appears in the results of this test?
A: 0 (no)

---

Experiment: NCI Yeast Anticancer Drug Screen. Data for the rad50 strain (AID 155);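 also: 0% = growth of vehicle-only cultures of the same strain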
Settings: S. cerevisiae rad50 strain growth inhibition; at 50.0 µM; active compounds read high
About 79,000 compounds went through this panel and 15% of them were active in at least one assay; those are over-represented in the sample as a whole. The source made the active and inactive calls. Rule as the data show it: active = growth inhibition above about 70%; inactive = the rest.
Consider the following compounds; for each one, report its growth inhibition.

Sample records with growth inhibition:
[[record]]
compound = "CCC(=O)c1ccc([N+](=O)[O-])cc1"
endpoint_name = "growth inhibition"
observed_value = "-14.2% (inactive)"

[[record]]
compound = "O=CN(CCO)CCO"
endpoint_name = "growth inhibition"
observed_value = "-1.6% (inactive)"

[[record]]
compound = "CC(C)C1CCC2(CC1)CCN(CCCN(C)C)CC2"
endpoint_name = "growth inhibition"
observed_value = "-4.65% (inactive)"


For every item in the list below, what is its measured growth inhibition?
1. Cc1c(C)c(Br)c(C)c(C)c1Br
2. O=S1(=O)C2C=CC1CCCC2
3. COC(=O)C1c2ccoc2CC2C1C(O)C(O)C1C(C)(C)CCCC21C (stereo not drawn)
4. COc1nc2n[nH]nc2c(=O)n1C
5. CCCCNC(=S)SSSSC(=S)NCCCC
6. CCC1OC(=O)CC(O)C(C)C(OC2OC(C)CC(N(C)C)C2O)C(CC=O)CC(C)C(=O)/C=C/C2(C)OC2C1C (stereo not drawn)
7. Cc1cc(=O)c2cc([N+](=O)[O-])ccc2[nH]1

A:
["-7.45% (inactive)", "3.35% (inactive)", "57.5% (inactive)", "-5.75% (inactive)", "-8.45% (inactive)", "-6.9% (inactive)", "6.05% (inactive)"]

Batch request: growth inhibition for each of the following compounds.
1. Cc1nc(Cc2n[nH]c(C)n2)n[nH]1
2. N#Cc1nc(/C=C/c2nc(C#N)c(N)o2)oc1N
3. Cc1ccc(OP2(Oc3ccc(C)cc3)=NP(Oc3ccc(C)cc3)(Oc3ccc(C)cc3)=NP(Oc3ccc(C)cc3)(Oc3ccc(C)cc3)=N2)cc1
4. CCc1cccc(CC)c1NC(=S)NC(=O)c1ccc(Br)cc1
5. Cc1cc(C(=O)O)c2c([nH]1)c(C)cc1nc3ccccc3c12

A:
1: 14.4% (inactive); 2: -34.5% (inactive); 3: 10.6% (inactive); 4: -5.3% (inactive); 5: 12.6% (inactive)

// each compound listed below needs its growth inhibition
1. O=C1/C(=C/c2ccco2)CC/C1=C\c1ccco1
2. CCCCC/C(=N\NC(N)=O)C1=CCCCC1

A:
1: 23.4% (inactive); 2: 13.1% (inactive)

Record growth inhibition for all entries; do not skip any.
1. CCCCOC(=O)CC1CCCCC1
2. CCOC(=O)C(/C(=N/NC(=O)OC)C(=O)Nc1ccc(C(C)=O)cc1)c1cnc2ccccc2n1 (stereo not drawn)
3. S=c1nn[nH]n1-c1cccc2ccccc12
4. Cc1ccc(S(=O)(=O)Nc2ccc([N+](=O)[O-])cc2[N+](=O)[O-])cc1
5. Cc1ccccc1NC(=S)N1CCOCC1
6. C/C=C/c1nc2ccccc2[nH]1

A:
-15.3% (inactive)
0.9% (inactive)
4.7% (inactive)
17.5% (inactive)
-4.55% (inactive)
-11.2% (inactive)

---

Exercise: for every item that follows, state its recorded growth inhibition.
Experiment: NCI Yeast Anticancer Drug Screen. Data for the bub3 strain (AID 167)
Settings: S. cerevisiae bub3 mutant strain, at 50.0 µM, active compounds read high
The panel holds about 79,000 compounds, 15% with a hit somewhere; the sample as a whole holds those more often.
Give bare numbers, in %.

[[record]]
compound = "COc1ccc(-n2nc3c(ccc4ccccc43)c2N)cc1"
unit = "%"
observed_value = -0.4

[[record]]
compound = "CC(Br)C1=CC(c2ccccc2)(c2ccccc2)c2ccccc21 (stereo not drawn)"
unit = "%"
observed_value = 97.3

[[record]]
compound = "O=C1CN(N2CCOCC2)CC(=O)N2CCCCN12"
unit = "%"
observed_value = 10.4

[[record]]
compound = "N#CCc1ccc(Nc2cc(=O)[nH]c(=O)[nH]2)cc1"
unit = "%"
observed_value = -7.5


Hey, quick one: what's growth inhibition for each of these?
1. COC(=O)C(Br)C(Br)c1ccc(OC)c(OC)c1 (stereo not drawn)
2. CC1(C)CC(=O)C(CC(C(=O)C(=O)Nc2cc(C(F)(F)F)ccc2Cl)C(=O)c2ccco2)C(=O)C1 (stereo not drawn)
3. CC(=O)NS(=O)(=O)c1ccc(NC(=O)COC(=O)c2cccc3c(=O)c4ccccc4[nH]c23)cc1
4. COc1ccc2c(c1)N(S(=O)(=O)c1ccc(C)cc1)C[C@@H]1c3cc(O)c(OCc4ccccc4)cc3O[C@H]21
5. Cc1ccc(C2OC(=O)C(=O)C2=O)cc1 (stereo not drawn)
6. CC1CN=C(N(C(=O)Nc2ccc(Cl)c(Cl)c2)c2ccccc2)S1 (stereo not drawn)
7. CCCCOC(=O)C1(C(=O)OCCCC)CC1
8. CC(=O)OCCn1c([N+](=O)[O-])cnc1/C=[N+](/C)[O-]

A:
22.9
13
-28.6
2.4
-32
-2.55
-3.75
9.85

---

Test: NCI Yeast Anticancer Drug Screen. Data for the cln2 rad14 strain (AID 165);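 also: 0% = growth equal to vehicle treated cultures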
Conditions: S. cerevisiae cln2 rad14 strain, at 50.0 µM, active compounds read high
Compounds without any hit were thinned out: in the full panel of roughly 79,000, 15% have a hit.
Rule: TRUE for growth inhibition not less than -20%, FALSE for anything less.

Q: Does the compound COC(=O)c1ccc(-c2nc(C#N)c(N)o2)cc1 have recorded growth inhibition that is -20% or more?
A: TRUE

Q: # check: growth inhibition of O=C(NC(Cc1ccccc1)P(=O)(O)c1ccccc1)OCc1ccccc1 (configuration not stated) is greater than or equal to -20%
A: TRUE

Q: Please tell me: is the compound C[n+]1cccc2cccc(N)c21 at or over -20% in terms of growth inhibition?
A: TRUE

Q: Check this compound for growth inhibition at or above -20%: O=c1sc2ncccc2n1-c1ccc([N+](=O)[O-])cn1
A: TRUE

Q: Is growth inhibition at least -20%? Consider Cc1cccc(C=NC23CC4CC(CC(C4)C2)C3)c1
A: FALSE

Q: Does the compound CN1CCN(CCCBr)CC1 have recorded growth inhibition that is -20% or more?
A: FALSE

Q: Is it the case that CNc1c(F)cc(C(=O)O)cc1F has growth inhibition reaching or exceeding -20%?
A: TRUE

---

Experiment: NCI Yeast Anticancer Drug Screen. Data for the bub3 strain (AID 167)
Details: S. cerevisiae bub3 mutant strain, at 50.0 µM, active compounds read high
About 79,000 compounds went through this panel and 15% of them were active in at least one assay; those are over-represented in the sample as a whole.
endpoint.name: growth inhibition (%)
Numbers only, in %.

Known growth inhibition results, listed for orientation:
[[record]]
compound = "c1ccc(C2(c3ccccc3)c3ccccc3-c3ccccc32)cc1"
observed_value = -26.9

[[record]]
compound = "COc1ccc(NC(=O)C(=O)c2c(O)c3ccc(O)cc3oc2=O)c([N+](=O)[O-])c1"
observed_value = -2.85

[[record]]
compound = "N#CCCN(C1=NN(C(=O)CC(=O)Nc2cccc(Cl)c2)C(c2ccccc2)C1)c1ccccc1Cl (stereo not drawn)"
observed_value = -14.9


The following compounds each have a reported value; give each one's growth inhibition.
1. CCCCCCCCCCCCCCCCSc1ccc(S(=O)(=O)N(C)C)cc1N
2. CN(C)Cc1cc(CN(C)C)cc(CN(C)C)c1
3. COc1ccc2c(ccc3[nH]c4c(C)cnc(NCCCN(C)C)c4c32)c1
4. N#Cc1cc2ccccc2c2ccccc12
5. CCN(CC)C1=C(C)S(=O)(=O)C1c1ccc(C)cc1 (stereo not drawn)
6. CC1(O)CC(C(F)(F)F)(C(F)(F)F)OC1=O (stereo not drawn)
7. CNC(=S)SSSC(=S)NC

A:
[0.75, -11.2, 4.05, -11.2, -13.4, -2.25, -10.3]

Items follow; give growth inhibition for each.
1. ClCCCOCc1ccccc1
2. COCC1OC(OC2(COC)OC(COC)C(OC)C2OC)C(OC)C(OC)C1OC (stereo not drawn)
3. N#C/C(=N\NC(=O)c1ccncc1)c1ccc(Cl)cc1
4. Cc1c2ccccc2nc(CS(=O)c2ccccc2)[n+]1[O-] (stereo not drawn)
5. COC(=O)CNc1cccc([N+](=O)[O-])c1

A:
11.9
-18.1
-9.75
16.8
-11.3

Okay, here is my list. What is growth inhibition for each of these?
1. c1ccc2c3c(cc(CCc4cc5c(c6ccccc46)CCCC5)c2c1)CCCC3
2. CC(C)CC(F)(C(N)=O)C(N)=O

A:
1: -8.9; 2: -5.65
